biological target: Tyrosyl-tRNA synthetase, putative (Trypanosoma cruzi (strain CL Brener)) (UniProt Q4DSP6); assay: Trypanosoma cruzi tyrosyl tRNA synthetase (TcYRS) _High Tyrosine SOP; format: functional; set-up: scale not given: in the data most compounds retested in dose-response had high values; conditions: 30 µM
Sequence (Q4DSP6 as listed by the source): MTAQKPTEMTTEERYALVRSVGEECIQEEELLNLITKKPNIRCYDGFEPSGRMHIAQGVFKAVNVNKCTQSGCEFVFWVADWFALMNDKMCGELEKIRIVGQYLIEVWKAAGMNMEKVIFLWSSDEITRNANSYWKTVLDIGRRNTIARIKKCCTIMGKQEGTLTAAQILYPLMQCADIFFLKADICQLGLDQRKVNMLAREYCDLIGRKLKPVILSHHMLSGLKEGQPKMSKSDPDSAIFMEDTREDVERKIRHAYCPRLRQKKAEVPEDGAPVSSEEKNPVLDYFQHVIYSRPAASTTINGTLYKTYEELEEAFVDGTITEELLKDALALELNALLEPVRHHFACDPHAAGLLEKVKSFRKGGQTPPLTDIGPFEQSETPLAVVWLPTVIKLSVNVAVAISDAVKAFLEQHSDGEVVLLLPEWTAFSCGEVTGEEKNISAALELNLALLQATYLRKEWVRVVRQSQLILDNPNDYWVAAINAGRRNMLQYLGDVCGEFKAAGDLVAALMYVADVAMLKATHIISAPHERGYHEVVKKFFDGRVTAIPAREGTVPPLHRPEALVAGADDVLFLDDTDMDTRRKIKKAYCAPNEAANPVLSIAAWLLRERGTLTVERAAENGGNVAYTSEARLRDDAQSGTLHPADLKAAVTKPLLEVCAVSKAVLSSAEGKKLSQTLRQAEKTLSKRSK
Everything with Percent Effect lower than 5% is 0 (no); everything else, including exactly 5%, is 1 (yes).

compound | target_or_test_system | qualitative_label
CC(NCc1ccncc1)c1cc(F)ccc1N1CCN(C)CC1 (stereo not drawn) | Tyrosyl-tRNA synthetase, putative (Trypanosoma cruzi (strain CL Brener)) (UniProt Q4DSP6) | 0 (no)
Cc1cccc(C(=O)NCc2ccnc(N(C)C)c2)n1 | Tyrosyl-tRNA synthetase, putative (Trypanosoma cruzi (strain CL Brener)) (UniProt Q4DSP6) | 0 (no)
CCOc1cc(C)nc(N2CCN(Cc3nccn3C)CC2)n1 | Tyrosyl-tRNA synthetase, putative (Trypanosoma cruzi (strain CL Brener)) (UniProt Q4DSP6) | 1 (yes)
CCc1csc(CCNC(=O)C2CC(=O)N(C(C)C)C2)n1 (stereo not drawn) | Tyrosyl-tRNA synthetase, putative (Trypanosoma cruzi (strain CL Brener)) (UniProt Q4DSP6) | 1 (yes)
Cc1cccnc1CN1CCC(c2nnc(Cn3cccn3)n2C)CC1 | Tyrosyl-tRNA synthetase, putative (Trypanosoma cruzi (strain CL Brener)) (UniProt Q4DSP6) | 0 (no)
CS(=O)(=O)NCC1CCCCN1C(=O)Nc1cccnc1N1CCCC1 (stereo not drawn) | Tyrosyl-tRNA synthetase, putative (Trypanosoma cruzi (strain CL Brener)) (UniProt Q4DSP6) | 1 (yes)
CCC1=N[C@@]2(CC[C@@H]3CN(C(=O)Nc4ccc(F)cc4)C[C@@H]32)C(=O)N1 | Tyrosyl-tRNA synthetase, putative (Trypanosoma cruzi (strain CL Brener)) (UniProt Q4DSP6) | 1 (yes)
Cc1nc(-c2ccco2)ccc1C(=O)N1CCCC1Cn1cccn1 (stereo not drawn) | Tyrosyl-tRNA synthetase, putative (Trypanosoma cruzi (strain CL Brener)) (UniProt Q4DSP6) | 0 (no)
